- TARGET: HIV integrase (Human immunodeficiency virus type 1 group M subtype B)
- ASSAY INFO: 3'processing/strand transfer combined assay
- Type: biochemical
pIC50: −log10 of the molar value.
RECORDED ENDPOINT: pIC50

Any idea what pIC50 was measured for N#Cc1c(-c2ccoc2)cc(-c2ccc(N3CCOCC3)cc2)nc1OCc1ccc(C(=O)O)s1 [compound 14483] ?
4.30 to 5.00

---

- TARGET: HIV integrase (Human immunodeficiency virus type 1 group M subtype B, UniProt P04585)
- ASSAY INFO: 3'processing/strand transfer combined assay
- Format: biochemical
- CONDITION SET: Table 8 cells that name no assay; taken as the 3'processing/strand transfer combined assay; read-out: IC50
pIC50: −log10 of the molar value.
RECORDED ENDPOINT: pIC50

Illustrative cases are given below, each with its answer.
                                   compound  reported_measurement
0  Cc1cc(C(=O)O)ccc1COc1nc(-c2ccc(N3CCOCC3)cc2)cc(-c2ccoc2)c1C#N [compound 14499]                > 5.00
1  N#Cc1c(-c2ccoc2)cc(-c2ccc(N3CCOCC3)cc2)nc1OCc1nc(C(=O)O)co1 [compound 14761]          4.30 to 5.00
2  N#Cc1c(-c2ccoc2)cc(-c2ccc(N3CCOCC3)cc2)nc1OCc1c(C(=O)O)csc1Br [compound 14906]                > 5.00
3  CCOc1cnc(-c2cc(-c3ccc(N4CCOCC4)cc3)nc(OCc3ccsc3C(=O)O)c2C#N)o1 [compound 14963]          4.30 to 5.00
4  N#Cc1c(-c2ccoc2)cc(-c2ccc(N3CCOCC3)cc2)nc1OCc1nc(C(=O)O)cs1 [compound 14693]                > 5.00

Any idea what pIC50 was measured for N#Cc1c(-c2ccoc2)cc(-c2ccc(N3CCOCC3)cc2)nc1OCc1ccc(C(=O)O)cc1 [compound 14353] ?
> 5.00
